Conditions: in n-butanol, 288.15 K
Reported property: solubility (mole fraction)
Numbers only.

Entry CCCN(CCC)S(=O)(=O)c1ccc(C(=O)O)cc1 : reported solubility (mole fraction) = ?
0.0089

---

Settings: in isobutanol, 313.15 K
Reported property: solubility (mole fraction)
One number for each entry.

I am curious: what solubility (mole fraction) value has been reported for CCCN(CCC)S(=O)(=O)c1ccc(C(=O)O)cc1 ?
0.013

---

Conditions: in isopropanol, 318.15 K
Reported property: solubility (mole fraction)
One number for each entry.

// solubility (mole fraction) lookup, key: CCCN(CCC)S(=O)(=O)c1ccc(C(=O)O)cc1
0.021

Cited source for all entries: BigSolDB 2.1
